Form field: IC50 (one value per entry).
SYSTEM: α4β7 integrin (Homo sapiens (Human), UniProt P13612+P26010)
Sequence (P13612 34-1032): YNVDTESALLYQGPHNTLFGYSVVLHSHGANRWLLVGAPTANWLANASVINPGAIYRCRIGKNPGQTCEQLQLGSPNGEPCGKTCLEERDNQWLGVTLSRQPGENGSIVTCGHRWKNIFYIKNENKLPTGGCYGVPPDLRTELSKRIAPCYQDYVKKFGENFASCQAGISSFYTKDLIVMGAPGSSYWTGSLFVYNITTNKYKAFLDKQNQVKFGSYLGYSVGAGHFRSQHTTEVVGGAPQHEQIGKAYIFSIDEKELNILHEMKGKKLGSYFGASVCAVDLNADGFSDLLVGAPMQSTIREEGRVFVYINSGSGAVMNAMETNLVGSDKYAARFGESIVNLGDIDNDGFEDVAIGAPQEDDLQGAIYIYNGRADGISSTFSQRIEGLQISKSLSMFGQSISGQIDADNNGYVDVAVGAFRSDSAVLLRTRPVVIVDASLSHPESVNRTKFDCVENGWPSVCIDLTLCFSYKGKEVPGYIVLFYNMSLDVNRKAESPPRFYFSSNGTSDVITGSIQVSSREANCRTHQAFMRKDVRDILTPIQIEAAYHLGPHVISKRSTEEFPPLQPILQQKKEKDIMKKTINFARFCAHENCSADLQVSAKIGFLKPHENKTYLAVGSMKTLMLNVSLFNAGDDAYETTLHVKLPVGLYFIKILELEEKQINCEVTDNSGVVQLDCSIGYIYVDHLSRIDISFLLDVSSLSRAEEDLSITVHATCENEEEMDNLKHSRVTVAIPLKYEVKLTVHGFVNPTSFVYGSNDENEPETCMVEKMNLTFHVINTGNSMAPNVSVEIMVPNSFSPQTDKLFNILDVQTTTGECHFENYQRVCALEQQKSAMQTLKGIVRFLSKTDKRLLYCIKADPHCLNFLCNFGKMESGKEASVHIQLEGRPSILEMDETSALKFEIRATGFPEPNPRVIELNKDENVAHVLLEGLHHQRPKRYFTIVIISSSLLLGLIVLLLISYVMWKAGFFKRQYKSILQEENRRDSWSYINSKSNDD
Sequence (P26010 20-798): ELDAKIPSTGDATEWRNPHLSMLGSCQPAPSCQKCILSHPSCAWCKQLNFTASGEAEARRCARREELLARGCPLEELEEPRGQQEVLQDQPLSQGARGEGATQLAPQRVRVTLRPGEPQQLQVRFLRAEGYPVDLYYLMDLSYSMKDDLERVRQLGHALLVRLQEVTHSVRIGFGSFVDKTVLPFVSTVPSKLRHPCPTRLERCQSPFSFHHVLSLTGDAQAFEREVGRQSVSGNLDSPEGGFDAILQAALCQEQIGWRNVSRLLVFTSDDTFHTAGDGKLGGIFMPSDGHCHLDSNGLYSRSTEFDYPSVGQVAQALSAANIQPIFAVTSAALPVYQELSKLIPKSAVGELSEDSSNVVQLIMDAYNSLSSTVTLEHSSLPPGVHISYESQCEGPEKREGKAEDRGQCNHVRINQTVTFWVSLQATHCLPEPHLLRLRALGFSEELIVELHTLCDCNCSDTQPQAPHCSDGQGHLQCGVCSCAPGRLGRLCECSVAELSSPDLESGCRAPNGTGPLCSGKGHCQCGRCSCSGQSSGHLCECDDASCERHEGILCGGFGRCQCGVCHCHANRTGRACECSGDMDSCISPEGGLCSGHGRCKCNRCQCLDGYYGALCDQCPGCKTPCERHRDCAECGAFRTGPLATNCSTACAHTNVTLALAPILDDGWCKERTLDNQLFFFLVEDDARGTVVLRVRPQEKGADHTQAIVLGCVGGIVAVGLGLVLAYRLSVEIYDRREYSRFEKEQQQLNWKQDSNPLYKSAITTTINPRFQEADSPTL
TEST SUMMARY: Integrin Adhesion Assay: Protocol 1 (MAdCAM-coated plate, RPMI-8866 cells, CellTiter GLO readout)
Assay type: cell-based
CONDITION NOTES: integrin adhesion assay; determined by at least one of the assays described (protocol not specified)
RESULT TYPE: IC50

Cn1ccc(=O)n(-c2cccc3c(C[C@H](NC(=O)c4ccc(C(=O)NCCCCN)nc4)C(=O)O)cccc23)c1=O    > 1000 nM
O=C(N[C@@H](Cc1cccc2c(-c3cccc4ccncc34)cccc12)C(=O)O)c1c(F)cc(N2CCOC[C@@H]2C(F)(F)F)cc1CN1CCOCC1    10 to 100 nM
Cn1ccc(=O)n(-c2cccc3c(C[C@H](NC(=O)C4(C)CCC(F)(F)CC4)C(=O)O)cccc23)c1=O    10 to 100 nM

====

# pIC50 per entry
SYSTEM: α4β7 integrin (Homo sapiens (Human), UniProt P13612+P26010)
TEST SUMMARY: Integrin Adhesion Assay: Protocol 4 (MAdCAM-coated plate, RPMI-8866 cells with stable LOF mutation of the ITGB1 gene)
Format: cell-based
CONDITION NOTES: RPMI-8866 cells with stable LOF mutation of the ITGB1 gene; read-out: Mean IC50 α4β7 KO^a
pIC50: −log10 of the molar value.
RESULT TYPE: pIC50

Cc1cccnc1-c1ccc(F)c(C(=O)N[C@@H](Cc2cccc3c(-c4c(C(F)(F)F)c5ccccc5n(C)c4=O)cccc23)C(=O)O)c1F [Compound 316]    7.00 to 8.00
CN(C)Cc1ccc2c(C(F)(F)F)c(-c3cccc4c(C[C@H](NC(=O)C5(C(F)(F)F)CCN(CC(F)(F)F)CC5)C(=O)O)cccc34)c(=O)n(C)c2c1 [Compound 476]    > 8.00
COc1ccc(CN2CCCCC2)c(C(F)(F)F)c1-c1cccc2c(C[C@H](NC(=O)c3c(C)cccc3F)C(=O)O)cccc12 [Compound 562]    > 8.00
Cc1cccc(F)c1C(=O)N[C@@H](Cc1cccc2c(-c3c(C(F)(F)F)c4cc(CCN5CC(F)C5)ccc4n(C)c3=O)cccc12)C(=O)O [Compound 517]    > 8.00
Cn1ccc(C(F)(F)F)c(-c2cccc3c(C[C@H](NC(=O)c4c(F)cc(N5CCOCC5c5ccc(C(F)(F)F)cc5)cc4F)C(=O)O)cccc23)c1=O (stereo partly drawn) [Compound 442]    6.00 to 7.00
O=C(N[C@@H](Cc1cccc2c(-c3cccc4ccncc34)cccc12)C(=O)O)c1c(F)cccc1F [Compound 295]    < 6.00
Cc1n[nH]c(C(F)(F)F)c1-c1cc(F)c(C(=O)N[C@@H](Cc2cccc3c(-c4c(C(F)(F)F)c5ccccc5n(C)c4=O)cccc23)C(=O)O)c(F)c1 [Compound 310]    6.00 to 7.00
Cc1cccc(F)c1C(=O)N[C@@H](Cc1cccc2c(-c3nccc4c(CN5CCCC5)cccc34)cccc12)C(=O)O [Compound 619]    > 8.00
Cn1c(=O)c(-c2cccc3c(C[C@H](NC(=O)C4(C(F)(F)F)CCN(C5COCC5(F)F)CC4)C(=O)O)cccc23)c(C(F)(F)F)c2ccccc21 (stereo partly drawn) [Compound 512]    > 8.00
O=C(O)[C@H](Cc1cccc2c(-c3ncc(CN4CCCCC4)c4ccccc34)cccc12)NC(=O)C1(C(F)(F)F)CCN(CC2(C(F)(F)F)CC2)CC1 [Compound 683]    > 8.00
CC[C@@](Cc1cccs1)(C(=O)N[C@@H](Cc1cccc2c(-n3c(=O)ccn(C)c3=O)cccc12)C(=O)O)c1ccccc1 [Compound 292]    6.00 to 7.00
COc1ccc(CN2CCCC2)c(OC)c1-c1cccc2c(C[C@H](NC(=O)c3c(C)cccc3F)C(=O)O)cccc12 [Compound 596]    > 8.00
